// reported growth inhibition by drug plus 177Lu-lilotomab satetraxetan for each item listed
# System: RIVA
# test_summary: growth inhibition by drug plus 177Lu-lilotomab satetraxetan (1 - RLU/untreated control) (fraction); higher = stronger inhibition
# condition_parameters: 100 nM; time (day): 4; 177Lu-lilotomab satetraxetan 0.5 ug/ml
readout: growth inhibition by drug plus 177Lu-lilotomab satetraxetan

- COc1cc2ncnc(Nc3ccc(Oc4ccccc4)cc3)c2cc1OC: 0.567
- Nc1nc(Cl)nc2c1ncn2[C@@H]1O[C@H](CO)[C@@H](O)[C@@H]1F: 0.923
- CNCc1ccc(-c2[nH]c3cc(F)cc4c3c2CCNC4=O)cc1: 0.54
- CN(C)CCCCSC(=N)N: 0.415

---

# Tested on: U-2932
# test_summary: growth inhibition by drug plus 177Lu-lilotomab satetraxetan (1 - RLU/untreated control) (fraction); higher = stronger inhibition
# condition_parameters: 10 nM; time (day): 5; 177Lu-lilotomab satetraxetan 1 ug/ml
Structures can show the parent of a compound that is named as a salt.
Decide using growth inhibition by drug plus 177Lu-lilotomab satetraxetan: a value greater than or equal to 0.09 is yes, a smaller one is no.

- O=C1C(Cl)=C(NCCN2CCOCC2)C(=O)c2ncccc21: yes
- COc1cc2c(N3CCN(C(=O)Nc4ccc(OC(C)C)cc4)CC3)ncnc2cc1OCCCN1CCCCC1: no
- COc1cc(C(=O)NC(=S)Nc2cccc(NC(=O)c3ccccc3)c2)cc(OC)c1OC: yes
- CC[C@@H]1C(=O)N(C)c2cnc(Nc3ccc(C(=O)N[C@H]4CC[C@H](N5CCN(CC6CC6)CC5)CC4)cc3OC)nc2N1C(C)C: yes
- CN1CCN(c2cccc(Nc3nc4c(-c5ccc(S(C)(=O)=O)cc5)cccn4n3)c2)CC1: no
- Cc1cnc(-c2cnc(NCCNc3ccc(C#N)cn3)nc2-c2ccc(Cl)cc2Cl)[nH]1: yes
- CO[C@H]1C[C@@H]2CC[C@@H](C)[C@@](O)(O2)C(=O)C(=O)N2CCCC[C@H]2C(=O)O[C@H]([C@H](C)C[C@@H]2CC[C@@H](OCCO)[C@H](OC)C2)CC(=O)[C@H](C)/C=C(\C)[C@@H](O)[C@@H](OC)C(=O)[C@H](C)C[C@H](C)/C=C/C=C/C=C/1C [Everolimus (RAD001)]: yes
- CCOc1cc2ncc(C#N)c(Nc3ccc(F)c(Cl)c3)c2cc1NC(=O)/C=C/CN(C)C [Pelitinib (EKB-569)]: no
- CC[C@@H]1/C=C(\C)C[C@H](C)C[C@H](OC)[C@H]2O[C@@](O)(C(=O)C(=O)N3CCCC[C@H]3C(=O)O[C@H](/C(C)=C/[C@@H]3CC[C@H](Cl)[C@H](OC)C3)[C@H](C)[C@@H](O)CC1=O)[C@H](C)C[C@@H]2OC: yes
- COc1ccc(S(=O)(=O)Nc2cccnc2Nc2ccc(O)cc2)cc1: no
- OCCn1cc(-c2ccc3c(c2)CC/C3=N\O)c(-c2ccncc2)n1: no
- CC[C@H](CO)Nc1nc(NCc2ccccc2)c2ncn(C(C)C)c2n1 [Roscovitine (Seliciclib, CYC202)]: no
- O=c1[nH]cc(F)c(=O)[nH]1: no
- CC[C@@]1(O)C(=O)OCc2c1cc1n(c2=O)Cc2cc3c(CN(C)C)c(O)ccc3nc2-1 [Topotecan HCl]: yes
- Cn1cncc1[C@@](N)(c1ccc(Cl)cc1)c1ccc2c(c1)c(-c1cccc(Cl)c1)cc(=O)n2C [Tipifarnib (Zarnestra)]: yes
- Cc1cccc(-c2[nH]c(C(C)(C)C)nc2-c2ccc3nccnc3c2)n1: yes
- CCC(C)(C)C(=O)O[C@H]1C[C@@H](C)C=C2C=C[C@H](C)[C@H](CC[C@@H]3C[C@@H](O)CC(=O)O3)[C@H]21 [Simvastatin (Zocor)]: no
- C[C@@H](O[C@H]1OCCN(Cc2n[nH]c(=O)[nH]2)[C@H]1c1ccc(F)cc1)c1cc(C(F)(F)F)cc(C(F)(F)F)c1 [Aprepitant (MK-0869)]: no
